These measurements were taken from paper PMC12412055.

Target: SARS-CoV-2 nsp14/10 (Severe acute respiratory syndrome coronavirus 2)
Assay: Fluorescence polarization (FP) FTAD displacement assay, nsp14/10
Format: binding
Conditions: 50 nM FTAD, 1 μM enzyme, compound dilution series; read-out: KD (nsp14/10, determined by FP-assay)
MEASUREMENT TYPE: pKd
Answers are plain numbers, as −log10 of the molar value.

Nc1ncnc2c1ncn2[C@@H]1O[C@H](CNS(=O)(=O)Cc2ccc3ccccc3c2)[C@@H](O)[C@H]1O [Compound 65] | 5.42

I would be grateful if you could provide pKd for each of the following entries.
1. Nc1ncnc2c1ncn2[C@@H]1O[C@H](CNC(=O)Cc2cccc(F)c2Br)[C@@H](O)[C@H]1O [Compound 63]
2. Nc1ncnc2c1ncn2[C@@H]1O[C@H](CNS(=O)(=O)Cc2ccccc2)[C@@H](O)[C@H]1O [Compound 66]
3. Cc1cccc(-c2cncc(C(=O)NC[C@H]3O[C@@H](n4cnc5c(N)ncnc54)[C@H](O)[C@@H]3O)c2)c1 [Compound 64]

[4.76, 4.37, 5.54]
